- Tested on: BT-549
- ASSAY NAME: NCI tumour cell line growth inhibition, 48 h
Activity calls are given as the source filed them. No stated cut-off is given here; in the data, active = GI50 up to about 1.1 µM and inactive = higher.
ENDPOINT LABEL: GI50

Guide cases for GI50, answers given:
c1ccc2c(c1)ccc1nc3ccccn3c12 > 100 µM (inactive)
CC[C@@]1(O)C(=O)OCc2c1cc1n(c2=O)Cc2c-1nc1ccccc1c2Cl < 0.0136 µM (active)
Cc1nc(N)c(N2CCN(C(=O)O)CC2)c(O)n1 > 100 µM (inactive)

Can you look up GI50 on BT-549 for O=[N+]([O-])c1ccc2sc(/C=N/c3ccccn3)cc2c1 ?
85.1 µM (inactive)

Can you look up GI50 on BT-549 for COc1ccc2[nH]c3c4c(ccc3c2c1)C(=O)C=CC4=O ?
27.8 µM (inactive)

Can you look up GI50 on BT-549 for CNc1nnc(CCCCCCCCc2nnc(NC)o2)o1 ?
> 100 µM (inactive)
